Target: human CCR8 (human, UniProt P51685 1-355)
Assay: cell-based or functional assay

| BINDER | IC50 (nM), Ca2+ influx by 200 nM hCCL1 |
| --- | --- |
| humanized 10A11 mutant (IGKV3-20 N53Q, G29R/IGHV3-15 T94R) (antibody, V domains shown) VH: EVQLVESGGALVKPGGSLRLSCAASGFTFSTYALYWVRQAPGKGLEWVGRIRSKSNNYATYYADSVKDRFTISRDDSKNTLYLQMNSLKTEDTAVYYCTRARFYYSDYGYAMDYWGQGTLVTVSS VL: EIVLTQSPGTLSLSPGERATLSCRSSKSLLHSNRNTYLYWYQQKPGQAPRLLIYRMSQLASGIPDRFSGSGSGTDFTLTISRLEPEDFAVYYCMQHLEYPLTFGQGTKVEIKR | 0.19 |
| humanized 10A11 mutant (IGKV3-20 N53Q, N28K/IGHV3-15 T94R) (antibody, V domains shown) VH: EVQLVESGGALVKPGGSLRLSCAASGFTFSTYALYWVRQAPGKGLEWVGRIRSKSNNYATYYADSVKDRFTISRDDSKNTLYLQMNSLKTEDTAVYYCTRARFYYSDYGYAMDYWGQGTLVTVSS VL: EIVLTQSPGTLSLSPGERATLSCRSSKSLLHSKGNTYLYWYQQKPGQAPRLLIYRMSQLASGIPDRFSGSGSGTDFTLTISRLEPEDFAVYYCMQHLEYPLTFGQGTKVEIKR | 0.29 |
| humanized 10A11 mutant (IGKV3-20 N53Q, G29L/IGHV3-15 T94R) (antibody, V domains shown) VH: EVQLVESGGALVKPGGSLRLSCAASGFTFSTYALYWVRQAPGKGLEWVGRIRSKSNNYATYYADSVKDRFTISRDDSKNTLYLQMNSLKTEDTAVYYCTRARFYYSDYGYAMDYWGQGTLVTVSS VL: EIVLTQSPGTLSLSPGERATLSCRSSKSLLHSNLNTYLYWYQQKPGQAPRLLIYRMSQLASGIPDRFSGSGSGTDFTLTISRLEPEDFAVYYCMQHLEYPLTFGQGTKVEIKR | 0.21 |
| humanized 10A11 antibody (light chain variable region: IGKV4-1 N53Q+G29R/heavy chain variable region: IGHV3-15 T94R) (antibody, V domains shown) VH: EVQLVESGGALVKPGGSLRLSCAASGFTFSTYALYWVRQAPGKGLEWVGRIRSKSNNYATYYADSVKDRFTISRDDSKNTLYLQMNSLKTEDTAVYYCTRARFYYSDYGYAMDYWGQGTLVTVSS VL: DIVMTQSPDSLAVSLGERATINCRSSKSLLHSNRNTYLYWYQQKPGQPPKLLIYRMSQLASGVPDRFSGSGSGTDFTLTISSLQAEDVAVYYCMQHLEYPLTFGQGTKLEIKR | 0.12 |
